Reference for the values: paper PMC2788672

- System: sporogonic development of Plasmodium berghei ANKA in Anopheles stephensi
- assay-comment: In vivo transmission-blocking activity
- condition-context: dose 10 µmol/kg, single i.p. dose to mice
Quick rule for you: Mean no. of oocysts per mosquito±SEM under 3 gets TRUE, anything else gets FALSE.

Below, 4 compounds whose answers are already recorded.
> print(dat)
                                   compound  answer.label
1  COc1cc(NC(C)CCCN2C(=O)CN(C(=O)[C@H](N)CCSC)C2(C)C)c2ncccc2c1 (some centres unmarked)          TRUE
2  CC[C@H](C)[C@@H](N)C(=O)N1CC(=O)N(CCCC(C)Nc2cc(OC)cc3cccnc23)C1(C)C (some centres unmarked)         FALSE
3  COc1cc(NC(C)CCCN2C(=O)[C@@H](C)N(C(=O)CN)C2(C)C)c2ncccc2c1 (some centres unmarked)         FALSE
4  COc1cc(NC(C)CCCN)c2ncccc2c1 (centres unmarked) [Compound 1, primaquine, reference compound]         FALSE

Now turn to the next compound.
INPUT: Dear colleague, could you confirm whether Mean no. of oocysts per mosquito±SEM of COc1cc(NC(C)CCCN2C(=O)CN(C(=O)[C@H](N)Cc3ccccc3)C2(C)C)c2ncccc2c1 (some centres unmarked) falls below 3? Thanks.
OUTPUT: FALSE
